system: MDA-MB-468 breast; assay: NCI-60 one-dose screen, 48 h; details: 10 µM unless noted
The panel holds about 83,000 compounds, 20% with a hit somewhere; the sample as a whole holds those more often. Calls of active or inactive are those of the source. How the source made its calls: active means growth percent below 10; inactive means the rest.
Possible outcomes: active, inactive

# compound, categoryLabel
data = [
    ("COc1ccc(C)cc1NC(=O)SC(C)C", "inactive"),
    ("Clc1nnc2c3ccccc3ccn12", "inactive"),
    ("CS(=O)(=O)Nc1cc(-c2ccc3ncc(C#N)c(NCc4ccccc4F)c3c2)cnc1Cl", "active"),
    ("Cc1cc2nc(-c3ccccc3)c(-c3ccccc3)nc2cc1C", "inactive"),
    ("Cc1ccccc1-c1nc(C(Cl)Cl)nc2cc(-c3ccccc3)nn12", "inactive"),
    ("COCCOc1cnc2ccn([C@H](C)c3nnc4c(F)cc(-c5cnn(C)c5)cn34)c(=O)c2c1", "inactive"),
    ("CCOC(=O)c1nn(C2CCCCO2)c2ccc(NC(=O)CN3CCOCC3)cc12 (stereo unspecified)", "inactive"),
    ("Cc1nc2sc(C(=O)Nc3cccc(Br)c3C)c(N)c2cc1C(O)c1ccccc1 (stereo unspecified)", "inactive"),
    ("O=C1CCn2c1c(O)c1ccccc1c2=O", "inactive"),
    ("Cc1csc(/N=C(N)/N=C(\\N)c2cccc(Br)c2)n1", "inactive"),
    ("NC(=O)c1cccc(-n2ccc3cc(NC(=O)Nc4ccc(Cl)c(Cl)c4)ccc32)n1", "inactive"),
]
